# SUBJECT_OF_TEST: T1, B-cat-Halo (UniProt P35222 1-781)
# T1 sequence (looked up): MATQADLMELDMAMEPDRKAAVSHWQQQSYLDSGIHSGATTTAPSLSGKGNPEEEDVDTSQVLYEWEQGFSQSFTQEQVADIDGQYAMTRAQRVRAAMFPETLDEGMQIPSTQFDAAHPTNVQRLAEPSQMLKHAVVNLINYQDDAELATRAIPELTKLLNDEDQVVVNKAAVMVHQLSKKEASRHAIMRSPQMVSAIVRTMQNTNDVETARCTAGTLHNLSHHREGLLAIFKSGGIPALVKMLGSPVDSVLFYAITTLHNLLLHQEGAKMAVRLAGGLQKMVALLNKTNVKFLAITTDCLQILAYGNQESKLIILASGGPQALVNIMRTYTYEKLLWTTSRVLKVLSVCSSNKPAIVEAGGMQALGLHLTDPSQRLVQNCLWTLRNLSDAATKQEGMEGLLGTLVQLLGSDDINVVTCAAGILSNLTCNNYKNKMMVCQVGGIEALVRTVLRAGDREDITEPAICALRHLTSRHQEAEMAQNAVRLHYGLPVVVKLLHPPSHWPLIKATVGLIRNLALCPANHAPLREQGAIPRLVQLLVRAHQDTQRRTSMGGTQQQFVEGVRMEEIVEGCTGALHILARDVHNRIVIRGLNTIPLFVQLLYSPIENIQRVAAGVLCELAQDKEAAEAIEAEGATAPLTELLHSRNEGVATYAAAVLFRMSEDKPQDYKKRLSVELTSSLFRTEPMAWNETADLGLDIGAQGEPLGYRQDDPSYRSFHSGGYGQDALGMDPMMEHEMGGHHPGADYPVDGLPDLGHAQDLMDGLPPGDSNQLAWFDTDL
# TEST_DESCRIPTION: cell-based or functional assay
Starred links: 1 amine or outer side, 2 acyl side, 3 side chain; linkers in the order of their positions; H or OH if unused. Positions of bridges follow the written chain, without caps; N, C: chain ends. Non-standard residues stand in square brackets, D forms with d. Primed or numbered codes have the meaning given here. *: point of attachment. PyrS2″ = (S)-3-amino-1-((pent-4-en-1-yloxy)carbonyl)pyrrolidine-3-carboxylic acid (stapling residue), C=CCCCOC(=O)N1CC[C@@](N[*:1])(C(=O)[*:2])C1; (Me2NPr)GAbu = (S)-2-amino-4-(N-(carboxymethyl)-3-(dimethylamino)propanamido)butanoic acid, CN(C)CCC(=O)N(CC[C@H](N[*:1])C(=O)[*:2])CC(=O)[*:3]; TfeGA = (S)-2-amino-3-((carboxymethyl)(2,2,2-trifluoroethyl)amino)propanoic acid, O=C([C@H](CN(CC(=O)[*:3])CC(F)(F)F)N[*:1])[*:2]; PyrS2 = (S)-3-amino-1-((pent-4-en-1-yloxy)carbonyl)pyrrolidine-3-carboxylic acid, C=CCCCOC(=O)N1CC[C@@](N[*:1])(C(=O)[*:2])C1; B5(22) = 2-amino-2-(pent-4-en-1-yl)hept-6-enoic acid (two alkene side chains), C=CCCCC(CCCC=C)(N[*:1])C(=O)[*:2]; HypEs5 = (2R,4S)-4-(pent-4-enoyloxy)pyrrolidine-2-carboxylic acid, C=CCCC(=O)O[C@H]1C[C@H](C(=O)[*:2])N([*:1])C1; GAbu = (S)-2-amino-4-((carboxymethyl)amino)butanoic acid, O=C([C@H](CCNCC(=O)[*:3])N[*:1])[*:2]; B5(3) = 2,2-bis(4-pentenyl)glycine (stitching residue), C=CCCCC(CCCC=C)(N[*:1])C(=O)[*:2]; Phenylacetyl(2,3,4,5,6-F5) = O=C(Cc1c(F)c(F)c(F)c(F)c1F)*; Acetyl(4-Me-piperazin-1-yl) = CN1CCN(CC(=O)*)CC1; Phe(3-COOH) = N[C@@H](Cc1cccc(C(=O)O)c1)C(=O)O; Phe(4-F) = N[C@@H](Cc1ccc(F)cc1)C(=O)O; Bta = N[C@@H](Cc1csc2ccccc12)C(=O)O; αAllylPro = C=CC[C@@]1(C(=O)O)CCCN1; tBuAla = CC(C)(C)C[C@H](N)C(=O)O; 3Thi = N[C@@H](Cc1ccsc1)C(=O)O
Lab note: anything with NanoBRET Abs IC50 at or over 6 µM counts as Fulfilled; the rest go in Not fulfilled.

Worked cases, answers included:
[
  {
    "BINDER": "Ac-[HypEs5]D[tBuAla][B5(3)]D[TfeGA]AAFL[PyrS2″][3Thi][Bta]Q-NH2 (staple 1-4, 4-11; also: staple double bonds reduced to -CH2-CH2-) [I-2265]",
    "CLASS_LABEL": "Fulfilled"
  },
  {
    "BINDER": "Ac-[αAllylPro]D[tBuAla][B5(22)]D[(Me2NPr)GAbu]AAFL[PyrS2][3Thi][Bta]Q-NH2 (staple 1-4, 4-11) [I-2244]",
    "CLASS_LABEL": "Fulfilled"
  },
  {
    "BINDER": "Ac-[αAllylPro]D[tBuAla][B5(22)]D[GAbu](Acetyl(4-Me-piperazin-1-yl))AAFL[PyrS2][3Thi][Bta]Q-NH2 (staple 1-4, 4-11) [I-2250]",
    "CLASS_LABEL": "Fulfilled"
  },
  {
    "BINDER": "Ac-[αAllylPro]D[tBuAla][B5(22)]D[GAbu](Phenylacetyl(2,3,4,5,6-F5))AAFL[PyrS2][3Thi][Bta]Q-NH2 (staple 1-4, 4-11) [I-2251]",
    "CLASS_LABEL": "Fulfilled"
  },
  {
    "BINDER": "Ac-[αAllylPro]D[tBuAla][B5(3)]D[Phe(3-COOH)]AA[Phe(4-F)]L[PyrS2″][3Thi][Bta]A-NH2 (staple 1-4, 4-11) [I-2262]",
    "CLASS_LABEL": "Not fulfilled"
  },
  {
    "BINDER": "Ac-[αAllylPro]D[tBuAla][B5(3)]D[Phe(3-COOH)]AAFF[PyrS2″][3Thi][Bta]A-NH2 (staple 1-4, 4-11) [I-2259]",
    "CLASS_LABEL": "Not fulfilled"
  }
]

Exercise: State whether the measured NanoBRET Abs IC50 reaches 6 µM, counting equality as reaching it, for Ac-[αAllylPro]D[tBuAla][B5(3)]D[Phe(3-COOH)]AAFL[PyrS2″][3Thi][Bta]A-NH2 (staple 1-4, 4-11) [I-2257]
Key: Not fulfilled
